Listed next: entries and their corresponding SPOT intensity.
# System Under Test: T1, Bzz1-1, P38822
# T1 sequence (P38822 478-572, looked up): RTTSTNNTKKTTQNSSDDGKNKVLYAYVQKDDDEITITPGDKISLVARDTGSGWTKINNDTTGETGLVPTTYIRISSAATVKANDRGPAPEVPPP
# Method: SPOT array
# Condition Context: median of control spots 4446
Would you mind answering with just the numeric figure?

Consider the reported SPOT intensity for these binders:
Binder | Test Value
LPMNIQPDLPPRKIM | 0
DRIRMFIRFPKFLLE | 0

Ask: Endpoint output: SPOT intensity of "DHPKGPPPPPPPDEK" . Value?
Reply: 72

Ask: For the binder "AHFQPQRTAPKPPIS" , what SPOT intensity is on record?
Reply: 1

Ask: For "RSKRLFPVRPMATAH" , what is its reported SPOT intensity?
Reply: 1

Ask: Look up SPOT intensity for this binder: "VQQDSLPKLPFRSWG"
Reply: 0

Ask: Look up SPOT intensity: "AVPPPPPPPPLPESL"
Reply: 0

Ask: Quick check: SPOT intensity of "SSTPTTPERPKRKSG" ?
Reply: 1

Ask: Item "VDFTLPPPPPPPGLD" has what recorded SPOT intensity?
Reply: 1

Ask: Report SPOT intensity for "WTQRRGPLVVYAEDN" please.
Reply: 0

Ask: Which SPOT intensity is listed for "VAPPPLPNRQLPNLD" ?
Reply: 2

Ask: Quick check: SPOT intensity of "PSRRDSLSIPRAVDA" ?
Reply: 0

Ask: Look up SPOT intensity: "NTMKKRPAPPSLPSL"
Reply: 60

Ask: Fill blank: measured SPOT intensity of the binder "STPQTMRQAPKRPDA" is ____.
Reply: 0

Ask: So what's the measured SPOT intensity for this one? "APKREAPKPPANTSP"
Reply: 10

Reference for the values: paper PMC2756588
